Hello, the source for this data is patent US20080026996A1, in case you need it.

Molecular target: human VPAC2 (Homo sapiens)
Construct: expressed in transfected cells
Sequence (P41587 24-438): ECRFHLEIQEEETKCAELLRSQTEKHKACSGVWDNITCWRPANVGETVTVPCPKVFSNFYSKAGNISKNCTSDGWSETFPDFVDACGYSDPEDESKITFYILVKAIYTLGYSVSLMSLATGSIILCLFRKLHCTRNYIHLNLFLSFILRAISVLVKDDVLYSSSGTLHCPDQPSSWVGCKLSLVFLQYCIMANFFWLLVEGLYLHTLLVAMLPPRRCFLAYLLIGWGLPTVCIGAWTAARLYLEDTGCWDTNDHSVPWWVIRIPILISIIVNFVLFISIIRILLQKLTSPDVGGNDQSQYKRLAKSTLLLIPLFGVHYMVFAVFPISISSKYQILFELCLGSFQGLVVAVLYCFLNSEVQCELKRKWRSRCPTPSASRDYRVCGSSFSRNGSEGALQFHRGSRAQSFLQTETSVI
Experiment: Filter binding assay, membranes of stable VPAC2 cell line, 125I-labeled VIP tracer (Table 2)
Details: read-out: Human VPAC2 Receptor Binding
Where no end group is shown, it is not given here. [ ]: non-standard residue; d: D form. The star is where a group is joined. hArg = N=C(N)NCCCC[C@H](N)C(=O)O; Hexanoyl = CCCCCC(=O)*; Aib = CC(C)(N)C(=O)O
Criterion: IC50 strictly under 300 pM. Met: T. Not met: F.

A record lists Ac-HSDAVFTDNYTRLRKQVAAKKYLQSIKNKRYGGPSSGAPPPS [Agonist P33] . Is its IC50 below 300 pM?
F

A record lists Hexanoyl-HSDAVFTDNYTRLRAQVAAQKYLQSIKNKRYGGPSSGAPPPS [Agonist P138] . Is its IC50 below 300 pM?
F

A record lists Hexanoyl-HSDAVFTDNYTRLRKQVAAKKYIQSIKNKRYGGPSSGAPPPS [Agonist P233] . Is its IC50 below 300 pM?
F

A record lists Hexanoyl-HSDAVFTDNYTRLLAKLALQKYLQSIKNKRYGGPSSGAPPPC [Agonist P164] . Is its IC50 below 300 pM?
F

A record lists Hexanoyl-HSDAVFTANYTRLRKQVAAKKYLQSIKNKRYGGPSSGAPPPS [Agonist P158] . Is its IC50 below 300 pM?
T

A record lists Hexanoyl-HSEAVFTENYTRLR[Aib]QVAA[Aib]KYLQSIKNKRYGGPSSGAPPPS [Agonist P314] . Is its IC50 below 300 pM?
F

A record lists Hexanoyl-HSDAVFTDNYTRLRKQVAAFKYLQSIKNKRYGGPSSGAPPPS [Agonist P148] . Is its IC50 below 300 pM?
F

A record lists Hexanoyl-HSDAVFTDNYTRL[hArg]KQVAAKKYLQSIKNKRYGGPSSGAPPPS [Agonist P305] . Is its IC50 below 300 pM?
T
